The entries that follow carry IC50 values tested on Tyrosine-protein kinase JAK1 (Homo sapiens, UniProt P23458), drawn from several published reports.

In: Suppose we examine the compound CCOC(=O)[C@H]1CCCN(Nc2c(C(N)=O)cnc3[nH]ccc23)C1 ; what IC50 value has been reported?
Out: 2.03 nM

In: Try this compound next: COc1ncc(-c2cc3nccn3c(-c3cnn(C4(CC#N)CN(S(=O)(=O)C(F)(F)F)C4)c3)n2)cn1
Out: > 1000 nM

In: Try this compound next: CCOC(=O)c1cnc2[nH]ccc2c1N[C@H]1C[C@@H](NS(=O)(=O)c2cccc(C#N)c2)C1
Out: ≤ 10 nM

In: Try this compound next: O=C(NCCC(F)(F)F)c1nn(C2CCOCC2)c2c1CN(c1ncnc3[nH]ccc13)CC2
Out: 500 to 2000 nM

In: Try this compound next: N#CCC1(n2cc(-c3ncnc4[nH]ccc34)cn2)CN(C2CCN(C(=O)OCc3ccc(F)cc3F)CC2)C1
Out: ≤ 5 nM

In: Try this compound next: CCc1cc(O)c(F)cc1-c1cc2[nH]ncc2c(N(CCN2CCOCC2)Cc2ccccc2N(C)S(C)(=O)=O)n1
Out: 18.1 nM

In: Try this compound next: N#CCC1(n2ccc(-c3ncnc4[nH]ccc34)c2)CN(C2CCN(C(=O)c3cccc(C#N)c3)CC2)C1
Out: 5 to 20 nM

---

The entries that follow carry pIC50 values tested on UniProt:P23458, drawn from several published reports.
// scale note: pIC50 = -log10(conc_M); give the bare number

In: Suppose we examine the compound CN(c1ncnc2[nH]ccc12)[C@H]1C[C@@H]2CN(C(=O)OCC(F)(F)F)C[C@@H]2C1 ; what pIC50 value has been reported?
Out: 7.02

In: Try this compound next: CC[C@@H]1CN(C(=O)CC#N)CN1n1cnc2cnc3[nH]ccc3c21
Out: 8.17

In: Try this compound next: CC(C)(O)Cn1nnc2cc(Nc3ncc(Cl)c(NC4CCN(c5ccc(C#N)cn5)CC4)n3)ccc21
Out: 9.30

---

The entries that follow carry IC50 values tested on Tyrosine-protein kinase JAK1 (Homo sapiens, UniProt P23458), drawn from several published reports.

In: Suppose we examine the compound CC(C)(C)C(=O)Nc1ncccc1CN1CCC(N2CC(CC#N)(n3cc(-c4ncnc5[nH]ccc45)cn3)C2)CC1 ; what IC50 value has been reported?
Out: 5 to 20 nM

In: Try this compound next: N#Cc1ccc(C(=O)Nc2cccc3c2ccn3-c2ccnc(NC(=O)C3CC3)c2)cc1
Out: > 1000 nM

In: Try this compound next: CC(C)OCCO[C@H]1CNc2cc(Nc3ncc(C(N)=O)c(NC4CC4)n3)ccc2OC1
Out: < 10 nM

In: Try this compound next: COCCC(C1CC1)n1cc(-c2nc(-c3cnn(C)c3)cc3nccn23)cn1 (centres unmarked)
Out: > 1000 nM

In: Try this compound next: CC(C)(C)OCCO[C@H]1CNc2cc(Nc3ncc(C(N)=O)c(NC4CC4)n3)ccc2OC1
Out: < 10 nM

In: Try this compound next: CS(=O)(=O)Nc1ccnc(-c2cnc3[nH]ccc3c2N[C@@H]2CCCN(C(=O)CC#N)C2)c1
Out: 10 to 100 nM

In: Try this compound next: Cc1cc(Nc2ncc(C)c(N3CC(C)(CNC(=O)C4CCNCC4(F)F)C3)n2)sn1 (centres unmarked)
Out: < 100 nM

In: Try this compound next: N#CCC1(n2ccc(-c3ncnc4[nH]ccc34)c2)CN(C2CCN(C(=O)Nc3ccc(Cl)cc3C#N)CC2)C1
Out: ≤ 5 nM

---

The entries that follow carry IC50 values tested on Tyrosine-protein kinase JAK1 (Homo sapiens), drawn from several published reports.

In: Suppose we examine the compound Cc1cnc(Nc2ccc(N3CCOCC3)cc2)nc1N1CC(CC#N)(N2CCN(C)CC2)C1 ; what IC50 value has been reported?
Out: < 50 nM

In: Try this compound next: CCC[C@H](Cn1ccc2cnc(Nc3cnn(CC(=O)OC(C)C)c3)nc21)C(C)C
Out: < 100 nM

In: Try this compound next: N#CCC1(n2cc(-c3ncnc4[nH]ccc34)cn2)CN(C2CCN(C(=O)c3ccc(-c4cccnc4)c(F)c3)CC2)C1
Out: ≤ 5 nM

In: Try this compound next: N#CCNC(=O)C1CCCN(Nc2ncnc3[nH]ccc23)C1 (centres unmarked)
Out: < 10 nM

In: Try this compound next: COc1cccc(NC(=O)N2CCC3(CCC(N(C)c4ncnc5[nH]ccc45)CC3)CC2)c1
Out: ≤ 10 nM

In: Try this compound next: Cc1cc(Nc2nn(C3COCCC3C#N)cc2C(N)=O)cc2c1B(O)OC2 (centres unmarked)
Out: < 10 nM

In: Try this compound next: Nc1cc2ccc1-c1ccnc(n1)Nc1ccc(OCC3COC3)c(c1)COc1ccc(cc1)NC2=O
Out: 1000 to 10000 nM

In: Try this compound next: NC(=O)c1cnc(Nc2ccc3c(c2)NC[C@H](O)CO3)nc1NC1C2CC3CC1CC(O)(C3)C2 (some centres unmarked)
Out: < 10 nM

---

The entries that follow carry IC50 values tested on Tyrosine-protein kinase JAK1 (Homo sapiens), drawn from several published reports.

In: Suppose we examine the compound N#CCC1(n2cc(-c3ncnc4[nH]ccc34)cn2)CN(C2CCN(Cc3c(C(F)(F)F)ccc(Cl)c3F)CC2)C1 ; what IC50 value has been reported?
Out: ≤ 5 nM

In: Try this compound next: Cc1cc2ccc1C(=O)NCCCCCNc1nc(ncc1C)Nc1cc-2cnc1F
Out: 101 to 1000 nM

In: Try this compound next: Cc1cc(Nc2ncc(Cl)c(N3CC(CC#N)(N4CCCCC4)C3)n2)sn1
Out: < 10 nM

In: Try this compound next: CN(c1ncnc2[nH]ccc12)N1CCCC(CNC(=O)CC(F)(F)F)C1 (centres unmarked)
Out: 100 to 1000 nM

In: Try this compound next: CN(c1nc(Nc2cnn(C)c2)ncc1Cl)C1CC2CN(C(=O)CC#N)CC2C1 (centres unmarked)
Out: 15 nM

In: Try this compound next: C[C@@H](O)c1nc2cnc3ccsc3c2n1[C@H]1CC[C@@H](n2cncn2)CC1
Out: ≤ 2000 nM

In: Try this compound next: N#CCC1(n2ccc(-c3ncnc4[nH]ccc34)c2)CN(C2CCN(C(=O)c3cnc(C(F)(F)F)cn3)CC2)C1
Out: 5 to 20 nM

In: Try this compound next: N#CCC1(n2cc(-c3ncnc4[nH]ccc34)cn2)CN(C2CCN(C(=O)c3ccc(-c4ccc(C#N)cc4)c(F)c3)CC2)C1
Out: ≤ 5 nM

---

The entries that follow carry pIC50 values tested on Tyrosine-protein kinase JAK1 (Homo sapiens), drawn from several published reports.
// scale note: pIC50 = -log10(conc_M); give the bare number

In: Suppose we examine the molecule N#CC1CN(S(=O)(=O)NC23CC(n4cnc5cnc6[nH]ccc6c54)(C2)C3)C1 ; what pIC50 value has been reported?
Out: 8.49

In: Try this molecule next: C[C@@H](O)c1nc2cnc3[nH]ccc3c2n1N1C2CCC1CC(=CC#N)C2
Out: 8.80

In: Try this molecule next: CCc1cc(O)c(F)cc1-c1cc2[nH]nc(C(=O)NC)c2c(NCCc2ccc(O)cc2)n1
Out: 8.77

In: Try this molecule next: CC(=O)N1CC2CC(Nc3nc(Nc4ccc5c(C)n(C)nc5c4)ncc3C)CC2C1 (centres unmarked)
Out: 7.24

In: Try this molecule next: CCCCS(=O)(=O)NC12CC(n3cnc4cnc5[nH]ccc5c43)(C1)C2
Out: 8.32

In: Try this molecule next: COC1CN(S(=O)(=O)NC23CC(n4cnc5cnc6[nH]ccc6c54)(C2)C3)C1
Out: 7.85

In: Try this molecule next: CC(C)(C#N)CNC(=O)NC12CC(n3cnc4cnc5[nH]ccc5c43)(C1)C2
Out: 7.31

In: Try this molecule next: CC(C)(O)Cc1cn2ccc(Nc3ncc(Cl)c(NC4CCN(c5ccc(C#N)cn5)CC4)n3)cc2n1
Out: 9.30

In: Try this molecule next: N#CCC(=O)N1CCN(n2cnc3cnc4[nH]ccc4c32)CC1
Out: 7.38

In: Try this molecule next: CCc1cc(O)ccc1-c1cc2[nH]ncc2c(N2CC(C)(O)C2)n1
Out: 8.37

In: Try this molecule next: CC(C)(C)NS(=O)(=O)c1cccc(N2CCc3cnc(Nc4ccc(CN5CCOCC5)cc4)nc32)c1
Out: 6.98

In: Try this molecule next: N#CCCN1[C@@H]2CC[C@H]1C[C@H](Nc1nc(Nc3ncc(C(N)=O)s3)cc3ncccc13)C2
Out: 8.25

In: Try this molecule next: COCC(=O)N1C[C@H]2C[C@H](N(C)c3ncnc4[nH]ccc34)C[C@H]2C1
Out: 7.31
